Task for the reader: assign each of the following molecules its reported %Inh.
System: NEK5;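 also: KINOMEscan kinase panel screen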
setup-conditions: concentration: 1 μM, replicates: in singlicate; n = 1
Note: unit % is implicit; provide only the numeric part.

Req: Notebook entry, NEK5 assay: %Inh of FC(F)(F)c1ccc(-c2nn3ncccc3c2-c2ccnc(Nc3cccc(C(F)(F)F)c3)n2)cc1 = ?
Resp: 0

Req: Record: Cl.Cl.c1ccc(-c2cc3ccncc3cc2OC2CCNCC2)cc1
Resp: 22

Req: Record: O=C(Nc1n[nH]c2nc(-c3ccco3)c(Br)cc12)c1ccc(CN2CCCC2)cc1.O=C(O)[C@H](O)[C@@H](O)C(=O)O
Resp: 0

Req: Record: CSc1nn2c(=O)cc(N3CCOCC3)nc2n1Cc1cccc(Cl)c1Cl
Resp: 18

Req: Record: COc1cc2c(Nc3cccc(NC(=O)c4ccccc4)c3)ncnc2cc1OCCCN1CCOCC1
Resp: 0

Req: Record: COc1ccc(NC(=O)c2ccc(-c3cc(-c4nnc(C)o4)ccc3C)cc2)cc1
Resp: 4

Req: Record: CC(=O)Nc1n[nH]c2ncc(-c3ccccc3)cc12
Resp: 5

Req: Record: CC(C)(C)c1ccc(-n2cnc3c(N)ncnc32)cc1
Resp: 10

Req: Record: Nc1nccc2scc(-c3ccc4c(c3)CCN4C(=O)Cc3cc(F)ccc3F)c12
Resp: 6

Req: Record: O=C(CCO)NCCn1ccc2ncnc(Nc3ccc(Oc4cccc(C(F)(F)F)c4)c(Cl)c3)c21
Resp: 0

Req: Record: Cl.Fc1ccccc1COc1ccc(Nc2ncnc3ccc(-c4nnc(C(F)(F)F)o4)cc23)cc1Cl
Resp: 4

Req: Record: Clc1ccc(-c2cc(-c3c[nH]nc3-c3ccccn3)ccn2)cc1
Resp: 36

Req: Record: Nc1nc(-c2ccc3c(N)n[nH]c3c2)cc(N2CCCCC2)n1
Resp: 4

Req: Record: O=c1cc(N2CCOCC2)nc2n(Cc3cccc(Cl)c3)ccn12
Resp: 2

Req: Record: CC(C)N1CCC(n2cnc(-c3ccc(F)cc3)c2-c2ccnc(N)n2)CC1
Resp: 3

Req: Record: CCC(CC)(CC)n1cnc2c(N)ncnc21
Resp: 0

Req: Record: Cc1cc(N2CCC(NS(=O)(=O)c3ccc(F)cc3)CC2)nc(Nc2cccc(C#N)c2)n1.O=C(O)C(F)(F)F
Resp: 0

Req: Record: COC(=O)c1cccc(NC(=O)NCCNc2ccnc(Nc3ccc(F)cc3)n2)c1
Resp: 17
